target_of_assay: mouse nerve growth factor (mouse, UniProt P01139 122-241)
Sequence (P01139 122-241): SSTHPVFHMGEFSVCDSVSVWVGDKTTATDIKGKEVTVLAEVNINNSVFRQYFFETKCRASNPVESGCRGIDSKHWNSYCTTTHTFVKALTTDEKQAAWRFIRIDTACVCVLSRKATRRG
assay_text: cell-based or functional assay
measured_attribute: IC50, TF-1 cell proliferation

// query Given the entry G1152H5 human IgG4 (antibody, V domains shown, tested as whole human IgG4; also called germlined 1152H5) VH: QVQLVQSGAEVKKPGSSVKVSCKASGGTFSTYGISWVRQAPGQGLEWMGGIIPIFDTGNSAQSFQGRVTITADESTSTAYMELSSLRSEDTAVYYCARSSRIYDMISSLQPYYDMDVWGQGTMVTVSS VL: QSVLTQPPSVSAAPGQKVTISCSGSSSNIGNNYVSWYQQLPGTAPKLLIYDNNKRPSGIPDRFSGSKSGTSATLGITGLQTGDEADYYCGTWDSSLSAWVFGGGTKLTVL , report its measured IC50, TF-1 cell proliferation.
// result 990 pM

// query Given the entry 1133C11 human IgG4 (antibody, V domains shown) VH: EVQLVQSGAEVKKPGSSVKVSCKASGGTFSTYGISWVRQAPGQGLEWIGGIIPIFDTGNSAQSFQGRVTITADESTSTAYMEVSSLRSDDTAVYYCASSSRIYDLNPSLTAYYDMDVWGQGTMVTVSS VL: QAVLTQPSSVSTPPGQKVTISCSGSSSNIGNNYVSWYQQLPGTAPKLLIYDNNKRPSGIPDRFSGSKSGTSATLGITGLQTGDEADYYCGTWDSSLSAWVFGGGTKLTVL , report its measured IC50, TF-1 cell proliferation.
// result 100 pM

// query Given the entry 1152H5 human IgG4 (antibody, V domains shown) VH: EVQLVQSGAEVKKPGSSVKVSCKASGGTFSTYGISWVRQAPGQGLVWIGGIIPIFDTGNSAQSFQGRVTITADESTSTAYMEVSSLRSDDTAVYYCASSSRIYDMISSLQPYYDMDVWGQGTMVTVSS VL: QAVLTQPSSVSTPPGQKATISCSGSSSNIGNNYVSWYQQLPGTAPKLLIYDNNKRPSGIPDRFSGSKSGTSATLGITGLQTGDEADYYCGTWDSSLSAWVFGGGTKLTVL , report its measured IC50, TF-1 cell proliferation.
// result 70 pM

Could you now look at the following binder, please?
// query Given the entry 1252A5 IgG4 (antibody, V domains shown, tested as whole human IgG4; also called germlined 1133C11) VH: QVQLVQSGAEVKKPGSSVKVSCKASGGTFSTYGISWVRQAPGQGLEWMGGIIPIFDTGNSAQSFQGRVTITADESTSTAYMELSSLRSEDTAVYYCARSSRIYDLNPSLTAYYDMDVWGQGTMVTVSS VL: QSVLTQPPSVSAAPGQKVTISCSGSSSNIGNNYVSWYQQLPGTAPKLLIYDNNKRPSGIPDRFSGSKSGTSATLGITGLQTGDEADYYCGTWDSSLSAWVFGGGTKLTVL , report its measured IC50, TF-1 cell proliferation.
// result 550 pM
